Tested on: AR mRNA
Experiment summary: AR mRNA levels in LMR20 cells (with/without DHT or R1881)
Type: cell-based, human
Condition context: LMR20 cells, no AR agonist, ASO 1.0 μM
Oligonucleotides are written 5' to 3', each unit as a sugar letter and its base; * is a phosphorothioate linkage, no mark a phosphodiester; rarer units and linkages stand in square brackets, end groups in braces. Plain capitals give the bases only. e = 2'-O-(2-methoxyethyl) (MOE); l = locked nucleic acid (LNA); k = constrained ethyl (cEt); [5mC] = 5-methylcytosine; d = 2'-deoxy (DNA)
Each entry below carries its recorded AR mRNA levels (% baseline value) of cells without AR agonist treatment.
Report as a plain number; the unit % baseline value is understood.

560131 (antisense kT*kT*kG*dA*dT*dT*dT*dA*dA*dT*dG*dG*kT*kT*kG*e[5mC]) [compound 560131] ... 29
554221 (ACCAAGTTTCTTCAGC; sugars from the 5' end l3 d10 l3, all phosphorothioate, methylation of C not given here) [compound 554221] ... 132
549458 (kG*kT*kT*dG*dA*dT*dT*dT*dA*dA*dT*dG*dG*kT*kT*kG) [compound 549458] ... 30

Next item in the queue.
Inquiry: Give AR mRNA levels (% baseline value) of cells without AR agonist treatment for 569236 (antisense eT*kG*kA*kT*dT*dT*dA*dA*dT*dG*dG*kT*kT*kG*e[5mC]*eA) [compound 569236]
Reply text: 42

###

Test system: AR mRNA
Experiment summary: Dose-dependent antisense inhibition of human AR in HuVEC cells (electroporation, qRT-PCR RTS3559, IC50)
Format: cell-based
Condition context: 62.5 nM; HuVEC, ~16 h; Table 14
Oligonucleotides are written 5' to 3', each unit as a sugar letter and its base; * is a phosphorothioate linkage, no mark a phosphodiester; rarer units and linkages stand in square brackets, end groups in braces. Plain capitals give the bases only. e = 2'-O-(2-methoxyethyl) (MOE); k = constrained ethyl (cEt); [5mC] = 5-methylcytosine; d = 2'-deoxy (DNA)
Quantity: percent inhibition of AR (%)
Report as a plain number; the unit % is understood.

549372 (kA*kA*kG*dT*dT*dG*dT*dA*dG*dT*dA*dG*dT*k[5mC]*kG*k[5mC]) [compound 549372] ... 17
569229 (antisense eG*eT*kT*kG*kA*dT*dT*dT*dA*dA*dT*dG*kG*kT*kT*eG) [compound 569229] ... 14
569223 (antisense eG*eT*kT*kG*kA*dT*dT*dT*dA*dA*dT*dG*dG*kT*kT*kG) [compound 569223] ... 20

Inquiry: Report percent inhibition of AR under test system AR mRNA for 569227 (antisense eT*eG*kA*kT*kT*dT*dA*dA*dT*dG*dG*dT*kT*kG*k[5mC]*eA) [compound 569227] .
Reply text: 22

###

Test system: AR mRNA
Experiment summary: Dose-dependent antisense inhibition of human AR in HuVEC cells (electroporation, qRT-PCR RTS3559, IC50)
Format: cell-based
Condition context: Table 35; 46.9 nM, HuVEC, electroporation, approximately 16 hours
Oligonucleotides are written 5' to 3', each unit as a sugar letter and its base; * is a phosphorothioate linkage, no mark a phosphodiester; rarer units and linkages stand in square brackets, end groups in braces. Plain capitals give the bases only. k = constrained ethyl (cEt); [5mC] = 5-methylcytosine; d = 2'-deoxy (DNA)
Each entry below carries its recorded percent inhibition of AR, 46.9 nM.

584166 (k[5mC]*kA*k[5mC]*dA*dT*d[5mC]*dA*dG*dA*dA*dG*dG*dA*kG*kT*kA; antisense) [compound 584166] ... 34%
584167 (kG*kA*kG*dT*dG*dT*dT*dA*dA*dT*dG*dA*dA*kG*kA*k[5mC]; antisense) [compound 584167] ... 13%
584138 (k[5mC]*kG*k[5mC]*dG*d[5mC]*dA*dG*dG*dT*dA*dG*dG*dA*kG*k[5mC]*k[5mC]; antisense) [compound 584138] ... 2%
549372 (kA*kA*kG*dT*dT*dG*dT*dA*dG*dT*dA*dG*dT*k[5mC]*kG*k[5mC]) [compound 549372] ... 0%

Inquiry: Report percent inhibition of AR, 46.9 nM under test system AR mRNA for 584152 (kG*kA*kG*dT*dT*dG*dT*dG*dA*dT*dT*dT*d[5mC]*kA*kG*kG; antisense) [compound 584152] .
Reply text: 28%

Inquiry: Report percent inhibition of AR, 46.9 nM under test system AR mRNA for 584149 (kG*kT*k[5mC]*dA*dA*dT*dA*dT*d[5mC]*dA*dA*dA*dG*k[5mC]*kA*k[5mC]) [compound 584149] .
Reply text: 11%

Inquiry: Report percent inhibition of AR, 46.9 nM under test system AR mRNA for 584145 (kA*kT*kG*dG*dG*dA*dG*dT*dA*dA*d[5mC]*dT*dT*kT*kT*kG; antisense) [compound 584145] .
Reply text: 6%

Inquiry: Report percent inhibition of AR, 46.9 nM under test system AR mRNA for 584162 (kT*kG*kG*dA*dT*dT*dG*dT*dA*dA*dA*dT*dT*kA*k[5mC]*kG; antisense) [compound 584162] .
Reply text: 24%
